- target_of_assay: DRB1*15:01 (Homo sapiens, UniProt P01903+P01911)
- Construct: purchased ProImmune
- test_details: REVEAL HLA-Peptide binding assay (ProImmune)
- conditions: after 24 hours (H24); score relative to high-affinity control peptide, percentage of the control signal
Entry flag: TRUE if DRB1*15:01 reaches 0.003%; FALSE if it does not.

Answered cases to consult:
sequence_code	target_of_assay	category_label
VNSLDPPLFTRYLRI [Design M-1, peptide covering L2321F]	DRB1*15:01 (Homo sapiens, UniProt P01903+P01911)	FALSE
LRIHPQSWVHHIALRM [Design M-5, peptide covering Q2335H]	DRB1*15:01 (Homo sapiens, UniProt P01903+P01911)	TRUE
VNSLDPPLLTRYLRI [WT-1, wild-type peptide of Factor VIII C2 domain, reference compound]	DRB1*15:01 (Homo sapiens, UniProt P01903+P01911)	FALSE
YTRYLRIHPQSWEHQ [Design M-12, peptide covering L2321Y, V2333E]	DRB1*15:01 (Homo sapiens, UniProt P01903+P01911)	TRUE
LRLHPQSWEHQIALRM [Design M-15, peptide covering I2327L, V2333E]	DRB1*15:01 (Homo sapiens, UniProt P01903+P01911)	TRUE
RIHPQSWVHHIALRM [Design M-4, peptide covering Q2335H]	DRB1*15:01 (Homo sapiens, UniProt P01903+P01911)	FALSE
LRIHPQSWVHQIALRM [WT-4, wild-type peptide of Factor VIII C2 domain, reference compound]	DRB1*15:01 (Homo sapiens, UniProt P01903+P01911)	TRUE
LTRHLRIHPQSWEHQ [Design M-8, peptide covering Y2324H, V2333E]	DRB1*15:01 (Homo sapiens, UniProt P01903+P01911)	TRUE

Task: # bool: DRB1*15:01 of FTRYLRIHPQSWEHQ [Design M-10, peptide covering L2321F, V2333E] >= 0.003%
Result: TRUE

Task: # bool: DRB1*15:01 of LRIHPQSWEHQIALRM [Design M-6, peptide covering V2333E] >= 0.003%
Result: TRUE

Task: # bool: DRB1*15:01 of LTRYLKIHPQSWEHQ [Design M-9, peptide covering R2326K, V2333E] >= 0.003%
Result: TRUE

Task: # bool: DRB1*15:01 of TTRYLRIHPQSWEHQ [Design M-11, peptide covering L2321T, V2333E] >= 0.003%
Result: TRUE

Task: # bool: DRB1*15:01 of VNSLDPPLYTRYLRI [Design M-3, peptide covering L2321Y] >= 0.003%
Result: FALSE

Task: # bool: DRB1*15:01 of VNSLDPPLTTRYLRI [Design M-2, peptide covering L2321T] >= 0.003%
Result: FALSE

Task: # bool: DRB1*15:01 of LTRYLRIHPQSWVHQ [WT-3, wild-type peptide of Factor VIII C2 domain, reference compound] >= 0.003%
Result: TRUE

Task: # bool: DRB1*15:01 of FTRYLRIHPQSWVHH [Design M-13, peptide covering L2321F, Q2335H] >= 0.003%
Result: TRUE

Task: # bool: DRB1*15:01 of RIHPQSWVHQIALRM [WT-2, wild-type peptide of Factor VIII C2 domain, reference compound] >= 0.003%
Result: FALSE

Task: # bool: DRB1*15:01 of LTRLLRIHPQSWEHQ [Design M-7, peptide covering Y2324L, V2333E] >= 0.003%
Result: TRUE
